test_name: Cellular viability qHTS for adrenocortical cancer (ACC) cell line NCI-H295R (AID 1963990); also: nearly all actives have a fitted effect of over 60% in size; also: potency is read from the fitted curve at half-maximal effect
condition_details: CellTiter-Glo ATP luminescence, 48 h; series mostly up to 46.1 µM
Records with an inconclusive call do not appear. Calls of active or inactive are those of the source. Calls follow the shape of the dose curve; as a rule, active = well fitted cell-killing curve with a large enough effect; inconclusive = small, poorly fitted or top-dose-only effect; inactive = flat fitted curve, though single readings scatter.
value_type: Potency

Before answering, review these 4 worked examples.
OCCCNc1cc(-c2ccnc(Nc3cccc(Cl)c3)n2)ccn1 ... 0.316 µM (active)
CN(C)CCC(c1ccccc1)c1ccccn1 (stereo unspecified) ... inactive
CC(Oc1c(Cl)cccc1Cl)C1=NCCN1 (stereo unspecified) ... inactive
Cc1onc(-c2ccccc2)c1-c1ccc(S(N)(=O)=O)cc1 ... inactive

Okay, next one:
Q. Endpoint output: Potency of CCn1c(-c2nonc2N)nc2c(C#CC(C)(C)O)ncc(OC[C@H]3CCCNC3)c21 . Value?
A. 17.8 µM (active)

The origin of these recorded values is PubChem BioAssay (NCATS).
